Quick list: growth per entry.
system: COLO 205 colon; assay: NCI-60 one-dose screen, 48 h (100 = growth as untreated, 0 = no growth, -100 = all killed); conditions: 10 µM unless noted
The panel holds about 83,000 compounds, 20% with a hit somewhere; the sample as a whole holds those more often.

{"columns": ["molecule", "growth (%)"],
 "data": [
  ["COc1cc(C2CC(c3cc(OC)c(OC)c(OC)c3)=NN2c2ccccc2)ccc1OCc1ccc(C)cc1 (stereo not given)", 119],
  ["Clc1cccc(Cl)c1/C=C/c1cc(/C=C/c2ccc(Br)cc2)c2ccccc2n1", 117],
  ["CCCCSc1nc(NCCc2c[nH]c3ccccc23)c(C#N)c(-c2ccccc2)n1", 24.8],
  ["Nc1cccc(SCc2cc3ccccc3[nH]c2=O)c1", 29],
  ["O=C(COc1ccc2c(c1)CCCC(=O)N2)NCc1ccccc1", 106]
]}
